Assay System: SP receptor (Rattus norvegicus, UniProt P14600)
Construct: from tissue; host or cells: rat submaxillary gland (crude tissue suspension)
Sequence (P14600 whole entry): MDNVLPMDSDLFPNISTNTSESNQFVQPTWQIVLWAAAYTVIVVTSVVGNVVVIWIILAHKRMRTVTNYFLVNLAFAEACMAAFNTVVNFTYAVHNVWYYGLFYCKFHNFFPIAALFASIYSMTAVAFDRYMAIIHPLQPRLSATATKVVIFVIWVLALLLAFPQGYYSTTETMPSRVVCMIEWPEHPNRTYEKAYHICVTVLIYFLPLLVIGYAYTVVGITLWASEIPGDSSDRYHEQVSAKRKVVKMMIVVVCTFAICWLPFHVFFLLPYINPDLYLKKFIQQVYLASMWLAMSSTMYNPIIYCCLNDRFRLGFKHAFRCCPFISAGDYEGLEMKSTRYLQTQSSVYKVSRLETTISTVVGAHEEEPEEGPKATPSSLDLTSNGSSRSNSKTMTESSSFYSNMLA
Experiment Summary: 3H-SP binding test, rat brain tissue
Test Parameters: 30 μM test compound; rat brain tissue (Examples 35-42)
Procedure: Crude rat submaxillary gland or brain tissue is suspended in buffer containing protease inhibitors (and calcium ions and magnesium ions in the case of brain tissue) and incubated under nitrogen atmosphere with ^3 H-SP and test compound. The bound SP is then separated from free SP by filtration and quantitated by liquid scintillation spectroscopy. […]
Non-standard residues stand in square brackets, D forms with d. Residues, ends and D or L forms follow the SMILES beside them. NMeL = CN[C@@H](CC(C)C)C(=O)O
Test Readout: inhibition at 30 µM (%)
All answers are understood in %, so give the number only.

// fetch inhibition at 30 µM given entry CSCC[C@H](NC(=O)[C@H](CC(C)C)N(C)C(=O)[C@@H](Cc1c[nH]c2ccccc12)NC(=O)[C@H](Cc1ccccc1)NC(=O)[C@@H](Cc1c[nH]c2ccccc12)NC(=O)[C@@H]1CCCN1)C(N)=O [Example 35, HPro-DTrp-Phe-DTrp-MeLeu-MetNH2] (H-P[dW]F[dW][NMeL]M-NH2)
46
